Origin of the recorded values: PubChem BioAssay (NCI)

# System: TK-10 renal
# method description: NCI tumour cell line growth inhibition, 48 h
Note to self: values exactly at 60 µM are yes (1). So TGI at or above 60 µM is yes (1), below is no (0).

| molecule | label |
| --- | --- |
| CS(=O)(=O)OCCN(CCOS(C)(=O)=O)c1ccc(C=Nc2ccc(-c3csc(Cc4ccccc4)n3)cc2)c(Cl)c1 | yes (1) |
| O=C(CCCc1cccc2[nH]c3c(c12)CN(Cc1ccccc1)CC3)c1ccc(F)cc1 | yes (1) |
| Cn1c(=O)nc2n(-c3ccc(Br)cc3)c3ccccc3nc-2c1=O | no (0) |
| COc1ccc2nc3cc(Cl)ccc3c(Sc3ccc(N)cc3)c2c1 | no (0) |
| COc1ccc2[nH]c3ccc4cc[n+](CCN5CCC(C6CCN(CC[n+]7ccc8ccc9[nH]c%10ccc(OC)cc%10c9c8c7)CC6)CC5)cc4c3c2c1 | no (0) |
| CN(C)CCCNc1ccnc2c([N+](=O)[O-])cccc12 | yes (1) |
| OCc1c(-c2cccs2)oc(-c2cccs2)c1CO | no (0) |
| C[C@H]1C[C@@H](n2c(Nc3ccc(OC(F)(F)F)cc3)nc3cc(CCC(=O)O)ccc32)CC(C)(C)C1 | no (0) |
| Cc1[nH]n(-c2nc(-c3ccccc3)cc(=O)[nH]2)c(=O)c1CCO | yes (1) |
| CC1=C[P+](c2ccccc2)(c2ccccc2)c2ccccc2O1 | yes (1) |
| Nc1cc(OCC2CCCCC2)nc(N)n1 | yes (1) |
| COc1cc(C[C@H]2COC(=O)[C@]2(O)Cc2ccc(OCc3ccccc3)c(OC)c2)ccc1OCc1ccccc1 | yes (1) |
| N#CC1=C(N)NC(=O)C(C#N)C12Nc1ccccc1S2 (centres undefined) | yes (1) |
| O=C1NC(c2ccccc2)(c2ccccc2)C(=O)N1CCCCCCN1C(=O)NC(c2ccccc2)(c2ccccc2)C1=O | yes (1) |
| CC(C)(C)OC(=O)NC(CSCc1ccc(C(=O)c2ccccc2)cc1)C(=O)N1CCN(CCCCN2c3ccccc3Sc3cc(N=[N+]=[N-])ccc32)CC1 (centres undefined) | yes (1) |
| CCOC(=O)NC(Nc1ccc(F)cc1F)(C(F)(F)F)C(F)(F)F | yes (1) |
| COc1ccc(N2C(=O)C3ON(Cc4ccc(CC(N)=O)cc4)C(c4c5ccccc5c(C)c5ccccc45)C3C2=O)cc1 (centres undefined) | no (0) |
| CCc1cn2c(/C=N/N=C(N)N)c(-c3cc(C)c(Cl)cc3Cl)nc2s1 | no (0) |
| N=C1OC(CN2CCN(c3ccccc3)CC2)CN1C(=O)Nc1ccccc1 (centres undefined) | yes (1) |
